B1: P2RY14 (parent)
chain: KLLSVIVWMLMLLLAVPNIILTNQ

Variants of: B1
measurement-description: protein stability index of a GFP-peptide fusion (GPS, HEK-293T) (PSI 1-6); higher = more stable;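 also: lentivirally expressed fusions sorted by FACS into six bins by GFP to DsRed ratio, PSI derived from sequencing read proportions per bin multiplied by bin number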
test-conditions: c terminus: a fixed tail appended
measure: protein stability index

sequence-change: P17T
result: 2.4

sequence-change: I19D
result: 2.8

sequence-change: M11W
result: 2.89

sequence-change: I19Y
result: 3.02

sequence-change: N23A
result: 2.34

sequence-change: L3E
result: 2.78

sequence-change: M11S
result: 2.01

sequence-change: Q24D
result: 4.62

sequence-change: N18Y
result: 2.09

sequence-change: P17R
result: 2.8

sequence-change: L21T
result: 3.22

From: the supplement of paper PMC10567573
